biological target: GRIP2_7, Q9C0E4; assay: holdup assay; set-up: key: below the threshold = too weak to quantify, mostly under pKd 3.1 to 4; settings: plain residues with an end cap or a label only (N-terminal biotin on a linker: ado-ado)
Sequence (Q9C0E4 934-1023): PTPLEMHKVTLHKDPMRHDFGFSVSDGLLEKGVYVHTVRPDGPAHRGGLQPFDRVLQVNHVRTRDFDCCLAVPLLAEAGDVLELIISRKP
endpointLabel: pKd

VDSTVKVWTC [TRAF7, Q6Q0C0]; 4.35
PLSPEQPTKL [TRIM50, Q86XT4]; below the threshold
PRAEAEDSFL [PDGFRB, P09619]; below the threshold
CLREWCDAFL [BANF1, O75531]; below the threshold
